Reference for the values: PubChem BioAssay (NCI)

System: RXF 393 renal
experiment.notes: NCI-60 one-dose screen, 48 h
applied.conditions: 10 µM unless noted
Compounds without any hit were thinned out: in the full panel of roughly 83,000, 20% have a hit. Calls of active or inactive are those of the source. The calls were made as follows: active = growth percent below 10; inactive = the rest.
A correct response names exactly one class from active, inactive

Before answering, review these 3 worked examples.
molecule | class
O=C(Nc1cccc(Cl)c1)Oc1c(Cl)c(Cl)c(Cl)c(Cl)c1Cl | inactive
C1=C2CCCC3=Cc4ccccc4OC23Oc2ccccc21 | active
CC1OC(C(=O)N2CCN(CCO)CC2)CC1COC1CCCCC1 (stereo not drawn) | inactive

Turning now to a further molecule:
Qu. Write down the call the test reported for this molecule. Item: `C=CCNc1nc(O)c(/C=C2\C=Nc3ncccc32)s1`
Ans. active
